- experimental target: NLRP3 inflammasome (Homo sapiens, UniProt Q96P20)
- Construct: IL-1beta HTRF
- Sequence (Q96P20 whole entry): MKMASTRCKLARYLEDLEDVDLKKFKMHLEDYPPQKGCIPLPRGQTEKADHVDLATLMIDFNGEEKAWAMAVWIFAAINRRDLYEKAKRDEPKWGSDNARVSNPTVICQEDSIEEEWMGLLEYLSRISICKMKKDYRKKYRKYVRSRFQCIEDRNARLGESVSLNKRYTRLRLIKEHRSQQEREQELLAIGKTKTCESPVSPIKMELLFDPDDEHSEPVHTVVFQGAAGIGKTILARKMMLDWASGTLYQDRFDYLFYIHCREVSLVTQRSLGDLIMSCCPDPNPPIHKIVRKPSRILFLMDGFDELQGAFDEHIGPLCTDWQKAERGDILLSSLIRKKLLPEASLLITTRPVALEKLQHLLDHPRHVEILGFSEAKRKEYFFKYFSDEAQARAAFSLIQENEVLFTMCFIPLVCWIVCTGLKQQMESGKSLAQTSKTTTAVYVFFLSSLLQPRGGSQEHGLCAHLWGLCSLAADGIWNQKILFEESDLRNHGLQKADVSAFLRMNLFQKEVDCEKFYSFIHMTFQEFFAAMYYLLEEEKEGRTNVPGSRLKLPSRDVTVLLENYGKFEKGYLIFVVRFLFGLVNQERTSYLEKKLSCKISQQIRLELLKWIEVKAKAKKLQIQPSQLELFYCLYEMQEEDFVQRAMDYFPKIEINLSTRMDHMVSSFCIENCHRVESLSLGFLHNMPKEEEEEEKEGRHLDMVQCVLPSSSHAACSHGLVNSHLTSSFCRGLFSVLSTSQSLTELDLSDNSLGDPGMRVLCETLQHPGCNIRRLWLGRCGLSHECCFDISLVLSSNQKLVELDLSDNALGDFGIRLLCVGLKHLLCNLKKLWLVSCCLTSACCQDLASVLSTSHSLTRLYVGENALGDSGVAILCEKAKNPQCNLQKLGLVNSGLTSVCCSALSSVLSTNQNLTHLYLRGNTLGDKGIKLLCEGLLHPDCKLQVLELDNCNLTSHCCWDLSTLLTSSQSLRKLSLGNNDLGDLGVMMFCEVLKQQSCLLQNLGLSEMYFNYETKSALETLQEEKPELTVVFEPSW
- assay info: IL-1β TR-FRET assay (THP-1 cells differentiated to macrophages with IFN-γ, LPS primed, ATP activated; HTRF)
- condition set: THP-1 macrophages, 50 ng/mL LPS priming, compound 30 min, 20 mM ATP 2 hours
pIC50: −log10 of the molar value.
measured metric: pIC50

Below: 5 compounds and their reported pIC50.
- Cc1cnc(-n2nc3nc(N[C@@H]4CCCN(C)C4)sc3c2C)c(O)c1 [Example 58]: 5.59
- Cc1cc(C)c(-n2cc3sc(NC4CCCN(C(=O)CC(F)F)C4)nc3n2)c(O)c1 (centres unmarked) [Example 113]: 6.29
- Cc1cc(C)c(-n2cc3sc(NCC(C)(F)F)nc3n2)c(O)c1 [Example 139]: 6.55
- Cc1cc(C)c(-n2cc3sc(N[C@@H]4C[C@@H](F)CN(C5CCOC5)C4)nc3n2)c(O)c1 (single isomer, unassigned) [Example 74]: 6.25
- CN1C[C@H](F)C[C@@H](Nc2nc3nn(-c4c(O)cc(F)cc4Cl)cc3s2)C1 [Example 17]: 6.96

a: Cc1cc(C)c(-n2cc3sc(NCCN4CCOCC4)nc3n2)c(O)c1 [Example 54]
b: CC(=O)NCCCCNc1nc2nn(-c3c(C)cc(C)cc3O)cc2s1 [Example 39]
Compare a and b and name the one whose reported pIC50 is smaller. Use the label to indicate which entry you chose. a

Source listed as patent US20260365671A1.
